Value source: ChEMBL document CHEMBL3632485

target: UniProt O43570; experiment: Inhibition of human recombinant carbonic anhydrase 12 expressed in Escherichia coli preincubated for 6 hrs by stopped flow CO2 hydrase assay
Sequence (O43570 whole entry): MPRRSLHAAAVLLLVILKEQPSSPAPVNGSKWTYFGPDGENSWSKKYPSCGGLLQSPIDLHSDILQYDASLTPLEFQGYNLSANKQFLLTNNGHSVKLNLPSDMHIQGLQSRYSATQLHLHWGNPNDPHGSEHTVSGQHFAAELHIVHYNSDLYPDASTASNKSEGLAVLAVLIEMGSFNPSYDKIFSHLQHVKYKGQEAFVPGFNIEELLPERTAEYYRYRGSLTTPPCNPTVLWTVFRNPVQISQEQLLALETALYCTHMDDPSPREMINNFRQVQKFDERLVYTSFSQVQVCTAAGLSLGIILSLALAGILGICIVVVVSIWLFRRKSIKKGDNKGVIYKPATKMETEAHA
Property Name: pKi
Keep in mind that pKi stands for -log10 of concentration in molar terms.

In plain terms, `Nc1c(C(=O)N/N=C2\C(=O)Nc3ccc([N+](=O)[O-])cc32)cnn1-c1ccc(S(N)(=O)=O)cc1` has a documented pKi of 8.27

In plain terms, `NS(=O)(=O)c1ccc(-n2ncc(C(=O)N/N=C3\C(=O)N(Cc4ccccc4)c4ccccc43)c2-c2ccccc2)cc1` has a documented pKi of 8.19

###

target: Carbonic anhydrase 9 (Homo sapiens)
Property Name: Ki (nM)
Give just the numeric value; nM need not be written.

In plain terms, `NS(=O)(=O)c1ccc(-n2ncc(C(=O)N/N=C3\C(=O)Nc4ccccc43)c2-c2ccccc2)cc1` has a documented Ki of 52.9

In plain terms, `NS(=O)(=O)c1ccc(-n2ncc(C(=O)N/N=C3\C(=O)Nc4ccc(Br)cc43)c2-c2ccccc2)cc1` has a documented Ki of 7.8

In plain terms, `COc1ccc2c(c1)/C(=N/NC(=O)c1cnn(-c3ccc(S(N)(=O)=O)cc3)c1N)C(=O)N2` has a documented Ki of 3.5

In plain terms, `Nc1c(C(=O)N/N=C2\C(=O)Nc3ccc([N+](=O)[O-])cc32)cnn1-c1ccc(S(N)(=O)=O)cc1` has a documented Ki of 7.4

In plain terms, `Nc1c(C(=O)N/N=C2\C(=O)Nc3ccc(Cl)cc32)cnn1-c1ccc(S(N)(=O)=O)cc1` has a documented Ki of 2.5

In plain terms, `Nc1c(C(=O)N/N=C2\C(=O)Nc3ccccc32)cnn1-c1ccc(S(N)(=O)=O)cc1` has a documented Ki of 2.8

In plain terms, `NS(=O)(=O)c1ccc(-n2nc(C(=O)N/N=C3\C(=O)Nc4ccc(Br)cc43)cc2-c2ccccc2)cc1` has a documented Ki of 20
